- assay name: TROY pathway blockers in reporter cells – Q293 LMP1-TROYcd cells, NF-kB luciferase, uHTS, primary screen (AID 1347056)
- condition summary: 4 h, at 10 µM
In all, about 360,000 compounds went through this assay and about 3,600 (1%) were called active.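 How the source made its calls: active means compounds whose plate-normalised and pattern-corrected inhibition of the luciferase reporter signal at the single screening dose is 50% or more; inactive means the rest.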 Many of the other results were omitted from the sample, so actives are more common in it than they were.
// allowed return values: active, inactive

- compound: "CCOC(=O)C(C)n1nc(-c2ccccc2)c2ccccc2c1=O (stereo unspecified)"
  assigned label: "inactive"

Query: recorded result category for "CCCNC(=O)c1c(Cl)cnn1-c1ccc(C)cc1" in this test
inactive

Try "NC(=O)C1CCN(C(=O)COc2ccc3c4c(c(=O)oc3c2)CCC4)CC1" next.
inactive

Follow-up item: "Cc1nc2cc(NC(=O)CSc3nc4c(C)cccc4cc3C#N)ccc2s1"
inactive

Next record, please: "COc1ccc(/C(N)=N/OC(=O)Cc2ccccc2)cc1"
inactive

Same lookup for "COc1ccc(N(CC(=O)Nc2cc(OC)cc(OC)c2)S(=O)(=O)c2c(C)n[nH]c2C)cc1" , please.
inactive

Next: CCCC(C(=O)NC1CCCC1)N(C(=O)Cn1nnc(-c2ccc(C)o2)n1)c1cccc(O)c1 (stereo unspecified)
inactive

###

- assay name: TROY pathway blockers in reporter cells – Q293 LMP1-TROYcd cells, NF-kB luciferase, uHTS, primary screen (AID 1347056)
- condition summary: 4 h, at 10 µM, stronger effect = higher value
The whole screen tested about 360,000 compounds, of which about 3,600 (1%) were called active. What follows is part of a selection rich in actives, with near analogues and random picks from the rest.
endpoint: inhibition (%)
Answers are plain numbers, in %.

- molecule: "O=C(Cn1c(-c2cscn2)nc2ccccc21)Nc1ccc(Cl)cc1"
  display unit: "%"
  inhibition: 6.66
- molecule: "O=[N+]([O-])/C=C/c1ccc2c(ccn2Cc2ccccc2)c1"
  display unit: "%"
  inhibition: 81.4
- molecule: "Cc1cc(Nc2cccc(C)c2C)n2ncnc2n1"
  display unit: "%"
  inhibition: 3.52
- molecule: "COc1ccccc1OCCNc1cc(N2CCOCC2)ccc1[N+](=O)[O-]"
  display unit: "%"
  inhibition: -25
- molecule: "CCn1c(/C=C/c2ccc([N+](=O)[O-])o2)nc2ccccc2c1=O"
  display unit: "%"
  inhibition: 1.09

I have 4 molecules here; please give me inhibition for each one.
1. CC1CN(C2CCCCC2)c2nc3c(c(=O)n(C)c(=O)n3C)n2C1 (centres undefined)
2. O=C(O)CN1c2cccc3cccc(c23)S1(=O)=O
3. O=C(Nc1nnc(C2CC2)s1)C1=NN(C2CCS(=O)(=O)C2)C(=O)CC1 (centres undefined)
4. Cc1onc(-c2ccc(Cl)cc2)c1-c1ccnn1S(=O)(=O)c1ccc(Cl)cc1

-2.69
18
-9.87
-10.7

###

- assay name: TROY pathway blockers in reporter cells – Q293 LMP1-TROYcd cells, NF-kB luciferase, uHTS, primary screen (AID 1347056)
- condition summary: 4 h, at 10 µM, stronger effect = higher value
Out of some 360,000 compounds screened, about 3,600 (1%) were called active. What follows is part of a selection rich in actives, with near analogues and random picks from the rest.
Would you mind telling me the reported inhibition of each entry?
Give bare numbers, in %.

Each compound below has a reported value. Please supply its inhibition.
1. COC(=O)CNc1nc(Cl)nc(N2CCC(C)CC2)n1
2. Cc1cccc(C(=O)OC(C)CN2CCCC2)c1 (stereo not drawn)
3. Cc1noc(C)c1COC(=O)COc1ccc(-c2ccccc2)cc1

6.46
17.2
4.68
